Hello, the source for this data is PubChem BioAssay (NCI), in case you need it.

- Test system: SK-MEL-2 melanoma
- assay.text: NCI-60 one-dose screen, 48 h (100 = growth as untreated, 0 = no growth, -100 = all killed)
- assay.conditions: 10 µM unless noted
About 83,000 compounds went through this panel and 20% of them were active in at least one assay; those are over-represented in the sample as a whole.
Response field class: enum, chosen by comparing growth against low interval = under 60%, middle interval = from 60% up to 90%, high interval = 90% and over

# compound, answer.label
data = [
    ("O=S(=O)(NCCNc1cc(-c2c(-c3cccc(O)c3)nc3sccn23)ccn1)c1ccc(Cl)cc1", "middle interval"),
    ("O=C1C=CC(=Nc2cc(Br)c(O)c(Br)c2)C=C1", "middle interval"),
    ("O=C(/C=C/C12c3ccccc3C(c3ccccc31)C1C(=O)NC(=O)C12)c1ccc(Cl)cc1 (stereo not given)", "low interval"),
    ("O=c1[nH]nc(-c2ccc(Cl)cc2)cc1Cc1ccccc1", "high interval"),
    ("CCCCCCCC/C=C\\CCCCCCCC(=O)Oc1cccc2cccnc12", "high interval"),
    ("COc1cc(C2C=C(c3cccc(NC(C)=O)c3)Nc3ncnn32)cc(OC)c1OC (stereo not given)", "middle interval"),
    ("CC(C)CCC[C@@H](C)[C@H]1CCC2C3=CCC4C(=O)C=CC(=O)C4C3CC[C@@]21C (stereo not given in full)", "low interval"),
    ("COc1ccc(/C(C)=C(\\c2ccc(Cl)cc2)c2ccc(OCCN3CCCCC3)cc2)cc1F", "middle interval"),
    ("CCCn1nc(-c2ccccc2)c2c(-c3ccccc3)onc2c1=O", "low interval"),
    ("CS(=O)(=O)c1ccc(-c2[nH]c3ccc(F)cc3c2/C=N/O)cc1", "high interval"),
    ("Clc1ccc2c(NCCCN3CCN(c4nc(N5CCOCC5)nc5ccccc45)CC3)ccnc2c1", "low interval"),
    ("Nc1c(C(=O)Nc2ccccc2)sc2nc3c(cc12)CCCCCC3", "low interval"),
    ("C[C@]12CCC(=O)C[C@H]1CC[C@@H]1[C@@H]2CC[C@@]2(C)[C@H]1CC[C@]2(O)C(=O)CO", "high interval"),
    ("CCN(CC)CCNc1ccc(C)c2sc3cc(C)ccc3c(=O)c12", "low interval"),
    ("COc1ccc(-c2cc(-c3ccc(Nc4nc(Nc5ccccc5)nc(Nc5ccc(Cl)cc5)n4)cc3)nc(N)n2)cc1", "middle interval"),
    ("COc1cc2c(cc1OC)-c1ccc3cc4c(cc3c1N(CCN(C)C)C2)OCO4", "low interval"),
    ("CCN(CC)CCCNC(=O)c1ccc(N)cc1O", "high interval"),
    ("CCc1cc(Cc2cc(CC)cc(C(C)(C)C)c2O)c(O)c(C(C)(C)C)c1", "low interval"),
]

---

- System: HT29 colon
- assay.text: NCI-60 one-dose screen, 48 h (100 = growth as untreated, 0 = no growth, -100 = all killed)
- assay.conditions: 10 µM unless noted
This is part of a sample that, as a whole, favours compounds with a hit. Of some 83,000 tested, about 20% had one in any assay.
Measured growth of individual entries

# compound, experimental.system, value.units, growth
rows = [
    ("CCOC(=O)N1CCc2c(sc3c2C(=O)N[C@H](c2ccc(OC)cc2)N3)C1", "HT29 colon", "%", 86.2),
    ("CN(C)c1ccc2cc(-c3ccccc3F)c(N)nc2c1", "HT29 colon", "%", 1.79),
    ("O=[N+]([O-])c1ccccc1C(O)Cc1ccc2ccccc2n1 (stereo unspecified)", "HT29 colon", "%", 112),
    ("CCNCCNc1cc(C2CCCC2)c(C#N)c2nc3ccccc3n12", "HT29 colon", "%", -9.9),
    ("CN(C)c1cnccn1", "HT29 colon", "%", 104),
    ("O=C(Nc1cccc2[nH]c(C(F)(F)F)nc12)c1cc(Cl)ccc1Cl", "HT29 colon", "%", 52.1),
    ("COc1cc(C2C=C(c3cccc(NC(C)=O)c3)Nc3ncnn32)cc(OC)c1OC (stereo unspecified)", "HT29 colon", "%", 10.9),
    ("CN1CCN(C2=C(Cl)C(=O)c3ccccc3C2=O)CC1", "HT29 colon", "%", 66.7),
    ("O=C1NN(C(=O)c2ccc(O)cc2)C(c2ccccc2)=N/C1=C\\c1cn(-c2ccccc2)nc1-c1ccccc1", "HT29 colon", "%", 95.1),
    ("CN(C)CCCCNc1ccc(NCCCCN(C)C)c2c1C(=O)c1c(O)ccc(O)c1C2=O", "HT29 colon", "%", -52.3),
    ("COc1cc2c(cc1OC)-c1ccc3cc4c(cc3c1N(CCCN1CCCCC1)C2)OCO4", "HT29 colon", "%", 25.4),
]

---

- System: OVCAR-5 ovarian
- assay.text: NCI-60 one-dose screen, 48 h (100 = growth as untreated, 0 = no growth, -100 = all killed)
- assay.conditions: 10 µM unless noted
About 83,000 compounds went through this panel and 20% of them were active in at least one assay; those are over-represented in the sample as a whole.
endpoint.name: growth (%)

# compound, recorded.number
records = [
    ("CC(C)CCC[C@@H](C)[C@H]1CCC2C3=CCn4c(=O)ccc(=O)n4C3CC[C@@]21C (stereo not given in full)", -84.3),
    ("CC1=NN(c2cccc(Cl)c2)C(=O)/C1=C\\c1cn(CC(O)CN2CCCCC2)c2ccccc12 (stereo not given)", 83.9),
    ("COc1ccc(C(=O)/C=C/C23c4ccccc4C(c4ccccc42)C2C(=O)NC(=O)C23)cc1 (stereo not given)", 91.4),
    ("O=C1N(c2ccccc2)C(=S)N[C@]12[C@H](c1ccccc1)C1CCCN1[C@]21C(=O)NC2C=CC(Cl)=C[C@H]21 (stereo not given in full)", 117),
    ("COc1ccc(-n2sc(=O)n(Cc3ccc(COC(=O)C(C)c4ccc(CC(C)C)cc4)cc3)c2=O)cc1 (stereo not given)", 63.6),
    ("N=C(N)c1ccc(-c2ccc(-c3ccc(Cl)cc3Cl)o2)cc1", 16),
    ("CC(=O)Nc1ccc2c(c1)Cc1c(F)cccc1-2", 106),
    ("CCN(CC)CCNc1ccc(C)c2sc3cc(C)ccc3c(=O)c12", 79.5),
    ("COc1ccc(C2=NC(=O)NC2c2ccc(OC)cc2)cc1 (stereo not given)", 77.8),
    ("C[N+](C)(C)CCOC(OCC[N+](C)(C)C)(c1ccccc1)c1ccccc1", 104),
    ("COc1cc(C2CC(=O)Nc3n[nH]c(-c4ccccc4)c32)cc(OC)c1OC (stereo not given)", 91.3),
    ("CCCn1nc(-c2ccccc2)c2c(-c3ccccc3)onc2c1=O", 87.7),
    ("OC(c1cccc(OCc2ccccc2)c1)c1nnc(-c2ccccc2)o1 (stereo not given)", 102),
    ("C[C@@H]1C(=O)N(C[C@H](Cc2ccccc2)N(Cc2ccccc2)Cc2ccccc2)[C@]1(Cc1ccccc1)C(=O)OC(C)(C)C", 109),
    ("NC(=O)c1c(NC(=O)c2ccccn2)sc2c1CCC(=O)C2", 21.5),
    ("N=C(N)c1ccc(-c2ccc(/C=C/c3ccccc3)s2)cc1", 13.1),
    ("Cc1nc(-c2ccccc2)cc2c(O)c(C(=O)N/N=C/c3ccc(N(C)C)cc3)[nH]c(=O)c12", 85.4),
    ("CC(C)OC(=O)NNC(=O)c1ccncc1", 98.5),
    ("O=C(/C=C/C12c3ccccc3C(c3ccccc31)C1C(=O)NC(=O)C12)c1ccc(Cl)cc1 (stereo not given)", -2.53),
    ("CCCCS(=O)(=O)Oc1ccc(-c2nc(C)c(C(=O)OCC)s2)cc1C=O", 94.5),
]

---

- Tested on: NCI-H322M lung
- assay.text: NCI-60 one-dose screen, 48 h
- assay.conditions: 10 µM unless noted
This is part of a sample that, as a whole, favours compounds with a hit. Of some 83,000 tested, about 20% had one in any assay. Activity calls are given as the source filed them. Rule for the calls: active = growth percent below 10; inactive = the rest.
Outcomes: active, inactive

# compound, experimental.system, answer.label
data = [
    ("CCOc1ccc2nc(-c3cccc(OCC(=O)NC(C)C)c3)nc(Nc3ccc(-c4cn[nH]c4)cc3)c2c1", "NCI-H322M lung", "active"),
    ("O=C(NCCOCCOCCNc1cccc2c1C(=O)N(C1CCCNC1=O)C2=O)c1cc2c(o1)C(=O)c1ccccc1C2=O (stereo not given)", "NCI-H322M lung", "active"),
    ("Cc1nc(Nc2ccc(NC(=S)Nc3ccccc3)cc2)c2ccccc2n1", "NCI-H322M lung", "inactive"),
    ("Cc1ccc(NSc2ccccc2[N+](=O)[O-])cc1", "NCI-H322M lung", "inactive"),
    ("Nc1c(C(=O)c2ccccc2)nnc2ncnn12", "NCI-H322M lung", "inactive"),
    ("Cc1nc(-c2ccccc2)cc2c(O)c(C(=O)N/N=C/c3ccc(N(C)C)cc3)[nH]c(=O)c12", "NCI-H322M lung", "inactive"),
    ("O=C(CC1Sc2ccccc2NC1=O)NNc1ccc(F)cc1 (stereo not given)", "NCI-H322M lung", "inactive"),
    ("CCCCNCC(=O)Nc1ccc(C(=O)OCC)cc1", "NCI-H322M lung", "inactive"),
    ("O=C(Nc1ccccc1)c1sc(-c2cccc(C(F)(F)F)c2)cc1O", "NCI-H322M lung", "inactive"),
    ("CCCCCOC(=O)c1ccc(NC(=O)CNCC(C)C)cc1", "NCI-H322M lung", "inactive"),
    ("CCCCCCNc1cc(C)nc2ccc(OC)cc12", "NCI-H322M lung", "inactive"),
    ("Clc1ccc(/C=N\\N=c2\\scc(-c3ccc(Cl)cc3)n2/N=C/c2ccc(Cl)cc2)cc1", "NCI-H322M lung", "inactive"),
    ("CS(=O)(=O)c1ccc(-c2nc3cc(Cl)ccc3n2CC(=O)N/N=C/c2ccc(Cl)cc2)cc1", "NCI-H322M lung", "inactive"),
    ("CCN(CCO)CC(=O)c1cc(Cl)cc(Cl)c1Cl", "NCI-H322M lung", "inactive"),
    ("C=C1C(=O)O[C@H]2[C@H]1CC/C(COC(=O)/C=C\\C(=O)NCc1ccc(Cn3c(=O)sn(-c4ccc(Cl)cc4)c3=O)cc1)=C\\CC[C@@]1(C)O[C@@H]21", "NCI-H322M lung", "active"),
    ("c1ccc2c(c1)nc(-n1ccnc1)c1nc3ccccc3n12", "NCI-H322M lung", "inactive"),
    ("COC1=CC(c2ccc[nH]2)=N/C1=C\\c1[nH]c(C)c(C(=O)OCCn2cc(CCC[C@@H]3Cc4cc(O)ccc4C4CC[C@]5(C)[C@@H](O)CC[C@H]5C43)nn2)c1C (stereo not given in full)", "NCI-H322M lung", "inactive"),
    ("CCCc1nc2ccccn2c1Nc1ccc(C(=O)NO)cc1", "NCI-H322M lung", "inactive"),
    ("O=C1C2=C(CCN(Cc3ccccc3)C2)N2CCN=C2N1Cc1ccc(F)cc1F", "NCI-H322M lung", "inactive"),
    ("O=[N+]([O-])c1ccc2[nH]cc(-c3c4ccsc4cc4[nH]c5ccc([N+](=O)[O-])cc5c34)c2c1", "NCI-H322M lung", "inactive"),
]
